Tested on: MS2 coat protein
Procedure Details: apparent KD of MS2 coat protein; designed switch direction (-1 OFF switch, 1 ON switch): -1; higher = weaker reporter binding
Experimental Setup: Eterna round: R95; input ligand: microRNA oligo, concentration not stated
Threshold rule: apparent KD of MS2 coat protein greater than or equal to 40 nM is Yes; below that, No.

Has UUAUAUAAUGUGAGGAUAUGCUGGUCCAUAGAUCAGCAGAAGGCACAUGAGGAUCACCCAUGUAGUAAAUUUUA [Mat - Exclusion 4 - JL Mod - D12] (puzzle: Brourd's mod of Exclusion 4) a recorded apparent KD of MS2 coat protein greater than or equal to 40 nM?
No

Has AGUUGGCGAGGAUAUACAUGAGGAUCACCCAUGUGAAGAAGAAUAGUGAGGAAGAAAAGUAGAAGGCGCUGACA [Mat - Exclusion 3 - Mod of Salish D37] (puzzle: Exclusion 3) a recorded apparent KD of MS2 coat protein greater than or equal to 40 nM?
No

Has CAGUACUGAGGAUAUACAUGAGGAUCACCCAUGUGCCUUAGCUAGGAUACUAGCAUUAGUAGAAGGCAGUACUG [Fiskers Ex 3 828 mod 14] (puzzle: Exclusion 3) a recorded apparent KD of MS2 coat protein greater than or equal to 40 nM?
No

Has ACGUAUAGAGGAUAUACAGAAUAUUACAUGAGGAUCACCCAUGUUCUUCAAUGUAUAUUUGUAGAAGGCUAAUGAA [EX-5 Malc#8] (puzzle: Exclusion 5) a recorded apparent KD of MS2 coat protein greater than or equal to 40 nM?
Yes

* * *

System: MS2 coat protein
Procedure Details: apparent KD of MS2 coat protein; designed switch direction (-1 OFF switch, 1 ON switch): -1; higher = weaker reporter binding
Experimental Setup: Eterna round: R95; input ligand: none
Assay Metric: apparent KD of MS2 coat protein (nM)
# number only, unit nM dropped from output

Per the record, GAAAAGGUAGGAUAUACGAAAAAAAAGGGUAGAAAAAAAACACAUGAGGAUCACCCAUGUAGAAGGACCAAGAG [salish99_ex2_r3_039] (puzzle: Exclusion 2) has apparent KD of MS2 coat protein of 31.9

Per the record, GGUACUAACACGAGAGUGUUAGUACAAUAAGCUUGUGUUACAUGAGGAUCACCCAUGUCCUCAUAAGCUCGUCUUAU [Mat - Sensor v3 - Turn-off var 2 - D57] (puzzle: Sensor v3, turn-off variant 2) has apparent KD of MS2 coat protein of 124

Per the record, GCGAAAGCAAGCAGGUGAAACAUGAGGAUCACCCAUGUCCUCAUUUGCUCGUCUUAUAAGCUAUGCGAAAGCAUAGC [Sensor 3, v1 - 3] (puzzle: Sensor v3, turn-off variant 1) has apparent KD of MS2 coat protein of 12.5

Per the record, AAGAAACAUGAGGAUCACCCAUGUGAGGAUAUGAUUAAGAAAAGAAAAGAAAGAAGAUUCAGAAGGCACAAAGG [salish99-ex1_r3_054] (puzzle: Exclusion 1) has apparent KD of MS2 coat protein of 82.9

Per the record, CAUACUGAAGUUAGGAUAUUCGGACGAAUACGGAUGGAGAAGGGACAUGAGGAUCACCCAUGUAGAUAGUAAAG [EX-4 Malc #13] (puzzle: Brourd's mod of Exclusion 4) has apparent KD of MS2 coat protein of 19.8

Per the record, UAAAAGUCAGGAUAUGCGAGAGAUUGAAGUAUGGAAAGGUAGCAGAAGGGACAUGAGGAUCACCCAUGUGAGGA [JR_Exclu4_Sub095] (puzzle: Exclusion 4) has apparent KD of MS2 coat protein of 29.5

Per the record, CGGUACUGAGGAUAUACAUGAGGAUCACCCAUGUGUUCCAGCUAGCGUACUGGCAUUAGUAGAAGGCGGUGCUG [JL-ex3-3.17 Brourd mod] (puzzle: Exclusion 3) has apparent KD of MS2 coat protein of 14.3

Per the record, CUGAUGGACUAGGAUAUCCUCAUCGAUCAGGGAGGAGAAGGAGUCACAUGAGGAUCACCCAUGUGAUGGUAAAA [Atqubi] (puzzle: Exclusion 6) has apparent KD of MS2 coat protein of 13.6

Per the record, UUAUUACAAGCAAGAUCCUACAUGAGGAUCACCCAUGUGCUCGUCUUGUAAGGUACAGUGACGAAAGUCACAGUACC [Sensor 3, v1 - 000] (puzzle: Sensor v3, turn-off variant 1) has apparent KD of MS2 coat protein of 24.9

Per the record, AAAUACAAGCAAAGAUCCUACAUGAGGAUCACCCAUGUGCUCGUCUUAUAAAGUACUAUCACGAAAGUGAUAGUACA [Sensor 3, v1 - 15] (puzzle: Sensor v3, turn-off variant 1) has apparent KD of MS2 coat protein of 1110

* * *

Tested on: K4 kissing-loop RNA reporter;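 also: bound reporter read as fluorescence of individual clusters on recovered sequencing chips by microscopy, with normalized cluster intensities fitted with a binding model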
Procedure Details: apparent KD of K4 kissing-loop reporter; higher = weaker reporter binding
Experimental Setup: Eterna round: R107; input ligand: arginine 13.2 mM
Assay Metric: apparent KD of K4 kissing-loop reporter (nM)
# number only, unit nM dropped from output

Per the record, AAUUGGGACGAAGGAUAUUGUCGGCCAUGUACGAGGUCCGGAUGUCAUGACUGUUAGUGAUGUUAACAAGAAGGUCGAGGGAGAC [theeternabot_exclusion_KL_FMN_B_25] has apparent KD of K4 kissing-loop reporter of 107

Per the record, AGAGUUAUGCGAGGAUAUGCGGUUAGUACUCAAAGAGUACUAACGCAGAGUGAUGUUCUGUGAAACGCAGAAGGUGCAUAACUCA [Omei KL FMN B SS B v3] has apparent KD of K4 kissing-loop reporter of 216

Per the record, `GGAGGCUAUGCAGGAUAUAGUCGGUUGAGUGAUGUUUAACGACUAAACCUUCUAAGUCACAGCCCGCUAGAAGGGCAUAGCCUCC` has apparent KD of K4 kissing-loop reporter of 225

Per the record, GCCAGAUAGACGGCCGCCACUUAUAAGUUUCAGUGAUGUUGGAACGGCAAAUGCCGAACACAAUAGAGGACCGGGUCAACUGGCG [Same State Tryptophan B GF 1] has apparent KD of K4 kissing-loop reporter of 591

Per the record, AAAUAGGUGUGCGAUACCAGCCGGAGUGAUGUUCCGUGUUGUACUGGCUGCACCUACGCCGGCCCUUGGCAGCGUGCUCCAUUUA [Enonin] has apparent KD of K4 kissing-loop reporter of 140

Per the record, GGGUCAGUCUGAAGGAGCGGCCAGACAGAGCAGUGAUGUUGCUCCUCCGGAAACGGUGUCGGCCAGGUAGGUCGCAGAUUGGCUC [Dienralais mod v1] has apparent KD of K4 kissing-loop reporter of 122

* * *

Tested on: MS2 coat protein
Procedure Details: apparent KD of MS2 coat protein; designed switch direction (-1 OFF switch, 1 ON switch): 1; higher = weaker reporter binding
Experimental Setup: input ligand: none
Answer each item with its documented apparent KD of MS2 coat protein.
The answer consists of two parts: a number and, after it, its unit.

Per the record, GAGAGAGGGUGAGGAUAUUCGGUGAUAAUGAUGGGAGAAGGCACAGACAUGAGGAUCACCCAUGUGGGAAUAAUCCAGAGAGAG [Parity 12 - Jieux - Same State NG 1] (Eterna round: R96, puzzle: Same State NG 1) has apparent KD of MS2 coat protein of 181 nM

Per the record, UCGAGCGUACUUGCAGACAUGAGGAUCACCCAUGUAAAUGGGAAGGAUAUGGUACCGUUUCGGUACCAGAAGGUCCUAAGUGCU [salish99_SSNG3_r04_304] (Eterna round: R96, puzzle: Same State NG 3) has apparent KD of MS2 coat protein of 1440 nM

Per the record, CGCCAGAGAACAGGAUAUGGGCCGCGGCCUAUGGGCUGCUAACUCACAUGAGGAUCACCCAUGUCCCAGAAGGGUUCCUGGCGG [Xediat] (Eterna round: R96, puzzle: Same State NG 2) has apparent KD of MS2 coat protein of 262 nM

Per the record, GCGGAACCUGACAUGAGGAUCACCCAUGUUCCGGAAACGGCACAGGAUAUCUGUCCGAAAAGGUCAGAGAAGGGUGAAAACCGC [Fiskers NG3ss - 96] (Eterna round: R96, puzzle: Same State NG 3) has apparent KD of MS2 coat protein of 719 nM

* * *

Test system: MS2 coat protein
Procedure Details: apparent KD of MS2 coat protein; designed switch direction (-1 OFF switch, 1 ON switch): -1; higher = weaker reporter binding
Experimental Setup: input ligand: none
Assay Metric: apparent KD of MS2 coat protein (µM)
# number only, unit µM dropped from output

Per the record, CGUCAGUCAGGAUAUGCAUACGUAGACAUGAGGAUCACCCAUGUGACGUGGGACUGGUGUGUAGAAGGGACGAACA [EX5 #78] (Eterna round: R97, puzzle: Exclusion 5) has apparent KD of MS2 coat protein of 0.0213

Per the record, AUGCGACAUGAGGAUCACCCAUGUGAGGAUAUGCGAAUGCAUACUUCGGUGUGAUAGAGCAGAAGGCGCAGGUA [EX1 #16] (Eterna round: R97, puzzle: Exclusion 1) has apparent KD of MS2 coat protein of 0.831

Per the record, UGAGAACUGCGAGGAUAUACAUGAGGAUCACCCAUGUAAUAGUGUGAGGCUUUGCCUCACACAAUGUAGAAGGCGCAGUUCUCU [Mat - Exclusion NG 2 - Mod of JL - D7] (Eterna round: R96, puzzle: Exclusion NG 2) has apparent KD of MS2 coat protein of 0.0119

Per the record, AGAUAGUGCUGAGGAUAUCUGAAUAGAAAGAAAAGAGAAGGCGGACAUGAGGAUCACCCAUGUGAGGUCUUGAGACUACAUGGU [Prohibition 37 - Jieux - Exclusion NG 1] (Eterna round: R96, puzzle: Exclusion NG 1) has apparent KD of MS2 coat protein of 0.0804

Per the record, AAGCACGCGUAGGAUAUAAUCCAAACCUCGAGGUUAGAAGGACGCACAUGAGGAUCACCCAUGUUCCUAGCAUC [Eternabot (Original) Solution 19] (Eterna round: R97, puzzle: Exclusion 6) has apparent KD of MS2 coat protein of 0.0171
